# Test system: HaCaT
# Protocol: Antiproliferative activity against human HaCaT cells at 50 uM after 24 hrs by BrdU incorporation assay
# Type: functional, cell-based
Active and inactive are the calls of the source. The calls are words filed in the database; no cut-off is given here.
Mark one answer only. Choices: active, inactive

Field: outcome | Entry: "Cc1c(CCOCCF)cc(-c2ccc(S(C)(=O)=O)cc2)n1-c1ccc(F)c(F)c1" active

Field: outcome | Entry: "Cc1c(CCOCCF)cc(-c2ccc(S(C)(=O)=O)cc2)n1-c1cccc(F)c1" active

Field: outcome | Entry: "Cc1c(CCOCCCF)cc(-c2ccc(S(C)(=O)=O)cc2)n1-c1ccc(F)cc1" active

Field: outcome | Entry: "CCCOCCc1cc(-c2ccc(S(C)(=O)=O)cc2)n(-c2cccc(F)c2)c1C" inactive

Field: outcome | Entry: "Cc1c(CCOCCCF)cc(-c2ccc(S(C)(=O)=O)cc2)n1-c1ccc(F)c(F)c1" active

Field: outcome | Entry: "Cc1c(CCOCCCF)cc(-c2ccc(S(C)(=O)=O)cc2)n1-c1cccc(F)c1" inactive

Field: outcome | Entry: "Cc1c(CCOCCF)cc(-c2ccc(S(C)(=O)=O)cc2)n1-c1ccc(F)cc1" active

Field: outcome | Entry: "CCCOCCc1cc(-c2ccc(S(C)(=O)=O)cc2)n(-c2ccc(F)c(F)c2)c1C" active

###

# System: HaCaT
# Protocol: Antiproliferative activity against human HaCaT cells at 10 uM after 24 hrs by BrdU incorporation assay
# Format: functional, cell-based
Activity calls are given as the source filed them. No cut-off for these calls is given here.
Measurement Name: Activity

INSERT INTO assay_data (smiles_text, study_target, result) VALUES
  ('Cc1c(CCOCCF)cc(-c2ccc(S(C)(=O)=O)cc2)n1-c1cccc(F)c1', 'HaCaT', 'Active'),
  ('Cc1c(CCOCCF)cc(-c2ccc(S(C)(=O)=O)cc2)n1-c1ccc(F)cc1', 'HaCaT', 'Active'),
  ('Cc1c(CCOCCCF)cc(-c2ccc(S(C)(=O)=O)cc2)n1-c1ccc(F)c(F)c1', 'HaCaT', 'Active');

###

# Test system: HaCaT
# Protocol: Cytotoxicity against human HaCaT cells at 1 to 50 uM after 24 hrs by LDH release assay
# Format: cell-based
Measurement Name: Activity

Would you please look over these solved cases?
INSERT INTO results (smiles_text, study_target, measurement_name, result) VALUES
  ('Cc1c(CCOCCCF)cc(-c2ccc(S(C)(=O)=O)cc2)n1-c1cccc(F)c1', 'HaCaT', 'Activity', 'Non-toxic'),
  ('CCCOCCc1cc(-c2ccc(S(C)(=O)=O)cc2)n(-c2ccc(F)c(F)c2)c1C', 'HaCaT', 'Activity', 'Non-toxic'),
  ('Cc1c(CCOCCF)cc(-c2ccc(S(C)(=O)=O)cc2)n1-c1cccc(F)c1', 'HaCaT', 'Activity', 'Non-toxic'),
  ('Cc1c(CCOCCCF)cc(-c2ccc(S(C)(=O)=O)cc2)n1-c1ccc(F)cc1', 'HaCaT', 'Activity', 'Non-toxic');

# input for lookup
Need Activity of "CCCOCCc1cc(-c2ccc(S(C)(=O)=O)cc2)n(-c2cccc(F)c2)c1C" , thanks. Non-toxic

###

Kindly state IC50 for each of the entries shown.
# Study Target: Prostaglandin G/H synthase 2 (Mus musculus, UniProt Q05769)
# Sequence (Q05769 whole entry): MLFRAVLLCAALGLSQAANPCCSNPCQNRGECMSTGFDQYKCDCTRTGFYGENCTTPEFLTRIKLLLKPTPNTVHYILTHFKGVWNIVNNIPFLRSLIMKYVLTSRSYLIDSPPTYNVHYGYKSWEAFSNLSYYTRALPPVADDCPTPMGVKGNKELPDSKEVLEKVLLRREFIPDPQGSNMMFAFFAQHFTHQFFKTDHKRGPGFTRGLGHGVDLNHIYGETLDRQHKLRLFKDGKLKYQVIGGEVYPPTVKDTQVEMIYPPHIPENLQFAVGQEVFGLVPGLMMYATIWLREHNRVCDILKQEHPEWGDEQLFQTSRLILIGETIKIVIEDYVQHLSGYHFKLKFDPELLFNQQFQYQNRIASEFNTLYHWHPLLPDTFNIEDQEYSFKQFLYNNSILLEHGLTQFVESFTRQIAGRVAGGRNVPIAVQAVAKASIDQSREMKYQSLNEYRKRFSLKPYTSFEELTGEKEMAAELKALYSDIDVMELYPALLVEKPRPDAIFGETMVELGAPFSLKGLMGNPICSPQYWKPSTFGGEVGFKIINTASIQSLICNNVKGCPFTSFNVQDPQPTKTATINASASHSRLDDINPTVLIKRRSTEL
# Protocol: Inhibition of COX-2 in mouse J774 cells assessed as reduction in LPS-induced PGE2 level incubated for 24 hrs by radio immunoassay
Give your result in nM as a bare value.

Need IC50 of "Cc1c(CCOCCF)cc(-c2ccc(S(C)(=O)=O)cc2)n1-c1ccc(F)c(F)c1" , thanks. 29

Need IC50 of "CCCOCCc1cc(-c2ccc(S(C)(=O)=O)cc2)n(-c2ccc(F)c(F)c2)c1C" , thanks. 18

Need IC50 of "Cc1c(CCOCCCF)cc(-c2ccc(S(C)(=O)=O)cc2)n1-c1ccc(F)c(F)c1" , thanks. 19

Need IC50 of "CCCOCCc1cc(-c2ccc(S(C)(=O)=O)cc2)n(-c2cccc(F)c2)c1C" , thanks. 13

Need IC50 of "Cc1c(CCOCCCF)cc(-c2ccc(S(C)(=O)=O)cc2)n1-c1cccc(F)c1" , thanks. 135

Need IC50 of "Cc1c(CCOCCF)cc(-c2ccc(S(C)(=O)=O)cc2)n1-c1cccc(F)c1" , thanks. 140

Need IC50 of "Cc1c(CCOCCF)cc(-c2ccc(S(C)(=O)=O)cc2)n1-c1ccc(F)cc1" , thanks. 13

Need IC50 of "Cc1c(CCOCCCF)cc(-c2ccc(S(C)(=O)=O)cc2)n1-c1ccc(F)cc1" , thanks. 7
